Recorded Plant response rating, Kochia by entry
System: kochia (Kochia scoparia)
Assay: Test C greenhouse herbicide test, postemergence
Type: in vivo
Details: Postemergence, 125 g ai/ha; scale 0 to 100, 0 is no effect, 100 is complete control
Text: At the same time, plants selected from these crop and weed species and also chickweed (common chickweed, Stellaria media), kochia (Kochia scoparia), and oat, wild (wild oat, Avena fatua), were planted in pots containing Redi-Earth® planting medium (Scotts Company, 14111 Scottslawn Road, Marysville, Ohio 43041) comprising spaghnum peat moss, vermiculite, wetting agent and starter nutrients and treated with postemergence applications of test chemicals formulated in the same manner. […]
PARAMETER_MEASURED: Plant response rating, Kochia

INSERT INTO measurements (compound_string, parameter_measured, result) VALUES
  ('CCOC(=O)Oc1c(C)nn(C)c(=O)c1-c1c(C)ccc2ccccc12', 'Plant response rating, Kochia', 90),
  ('Cc1nn(C)c(=O)c(-c2c(C)sc3ccccc23)c1O', 'Plant response rating, Kochia', 90),
  ('COc1nn(C)c(=O)c(-c2c(C)sc3ccccc23)c1O', 'Plant response rating, Kochia', 40),
  ('Cc1ccc(-c2c(O)c(Br)nn(C)c2=O)c2ccccc12', 'Plant response rating, Kochia', 5),
  ('Cc1sc2ccc(Cl)cc2c1-c1c(OS(C)(=O)=O)c(Cl)nn(C)c1=O', 'Plant response rating, Kochia', 90),
  ('COc1nn(C)c(=O)c(-c2c(C)ccc3ccccc23)c1O', 'Plant response rating, Kochia', 90),
  ('Cc1ccc2ccccc2c1-c1c(O)c(C)nn(C)c1=O', 'Plant response rating, Kochia', 85),
  ('CC(=O)Oc1c(C)nn(C)c(=O)c1-c1c(C)oc2c(C)cc(C)cc12', 'Plant response rating, Kochia', 20);

----------
Test system: kochia (Kochia scoparia)
Experiment: Test A greenhouse herbicide test, pre- and postemergence
Assay type: in vivo
Conditions: Preemergence, 500 g ai/ha; 0 to 100 scale where 0 is no effect and 100 is complete control
Below: a set of entries, each annotated with reported Plant response rating, Kochia.
PARAMETER_MEASURED: Plant response rating, Kochia

INSERT INTO assay_data (compound_string, target_of_assay, quantitative_result) VALUES
  ('Cc1cc(C)c2sc(C)c(-c3c(OC(=O)OCCCl)c(C)nn(C)c3=O)c2c1', 'kochia (Kochia scoparia)', 30),
  ('CC(=O)Oc1c(C#N)nn(C)c(=O)c1-c1c(C)ccc2ccccc12', 'kochia (Kochia scoparia)', 40),
  ('CSCC(=O)Oc1c(C)nn(C)c(=O)c1-c1cccc2ccccc12', 'kochia (Kochia scoparia)', 100),
  ('CCOC(=O)Oc1c(C)nn(C)c(=O)c1-c1c(C)sc2ccc(C)cc12', 'kochia (Kochia scoparia)', 90),
  ('COc1nn(C)c(=O)c(-c2c(C)ccc3ccccc23)c1OC(C)=O', 'kochia (Kochia scoparia)', 100),
  ('Cc1nn(C)c(=O)c(-c2ccc(Cl)c3ccccc23)c1OS(=O)(=O)N(C)C', 'kochia (Kochia scoparia)', 10),
  ('Cc1cc(C)c2ccccc2c1-c1c(OS(C)(=O)=O)c(C)nn(C)c1=O', 'kochia (Kochia scoparia)', 20),
  ('CCOC(=O)Oc1c(C)nn(C)c(=O)c1-c1c(C)ccc2ccccc12', 'kochia (Kochia scoparia)', 100),
  ('Cc1ccc2ccccc2c1-c1c(O)c(Cl)nn(C)c1=O', 'kochia (Kochia scoparia)', 90);

----------
System: speedwell (bird's-eye speedwell, Veronica persica)
Test: Test D controlled growth environment herbicide test, pre- and postemergence
Format: in vivo
Details: postemergence, 62 g ai/ha; scale 0 to 100, 0 no effect, 100 complete control
Catalogue of compounds with associated Plant response rating, Speedwell
PARAMETER_MEASURED: Plant response rating, Speedwell

INSERT INTO measurements (compound_string, target_of_assay, quantitative_result) VALUES
  ('CCOC(=O)Oc1c(C)nn(C)c(=O)c1-c1c(C)sc2c(C)cc(C)cc12', 'speedwell (bird''s-eye speedwell, Veronica persica)', 70),
  ('CC(=O)Oc1c(C)nn(C)c(=O)c1-c1c(C)cc(C)c2ccccc12', 'speedwell (bird''s-eye speedwell, Veronica persica)', 75),
  ('Cc1ccc2ccc(C)c(-c3c(O)c(C)nn(C)c3=O)c2c1', 'speedwell (bird''s-eye speedwell, Veronica persica)', 80),
  ('Cc1ccc2sc(C)c(-c3c(O)c(C)nn(C)c3=O)c2c1', 'speedwell (bird''s-eye speedwell, Veronica persica)', 55),
  ('Cc1cc(C)c2sc(C)c(-c3c(OC(=O)OCCCl)c(C)nn(C)c3=O)c2c1', 'speedwell (bird''s-eye speedwell, Veronica persica)', 70),
  ('CC(=O)Oc1c(C)nn(C)c(=O)c1-c1ccc(F)c2ccccc12', 'speedwell (bird''s-eye speedwell, Veronica persica)', 100),
  ('COc1nn(C)c(=O)c(-c2c(C)ccc3ccccc23)c1O', 'speedwell (bird''s-eye speedwell, Veronica persica)', 100),
  ('COC(=O)Oc1c(C)nn(C)c(=O)c1-c1c(C)sc2c(C)cc(C)cc12', 'speedwell (bird''s-eye speedwell, Veronica persica)', 80);

----------
Items are presented alongside their recorded Plant response rating, Blackgrass.
System: blackgrass (Alopecurus myosuroides)
Assay: Test A greenhouse herbicide test, postemergence
Assay type: in vivo
Conditions: 500 g ai/ha, visual rating after approx. 10 d, 0 to 100 scale (0 no effect, 100 complete control)
PARAMETER_MEASURED: Plant response rating, Blackgrass

INSERT INTO assay_data (molecule, quantitative_result) VALUES
  ('CCc1nn(C)c(=O)c(-c2c(C)oc3ccccc23)c1O [Compound 117]', 0),
  ('CCC(=O)Oc1c(C)nn(C)c(=O)c1-c1ccc(Br)c2ccccc12 [Compound 133]', 60),
  ('Cc1cc(C)c2sc(C)c(-c3c(OCC#N)c(C)nn(C)c3=O)c2c1 [Compound 188]', 60),
  ('C#Cc1ccc2cccc(-c3c(O)c(C)nn(C)c3=O)c2c1 [Compound 150]', 50),
  ('COC(=O)Oc1c(C)nn(C)c(=O)c1-c1c([N+](=O)[O-])ccc2ccccc12 [Compound 162]', 40),
  ('Cc1ccc2ccccc2c1-c1c(OS(C)(=O)=O)c(Br)nn(C)c1=O [Compound 155]', 70);

----------
System: kochia (Kochia scoparia)
Assay: Test A greenhouse herbicide test, pre- and postemergence
Type: in vivo
Conditions: Preemergence, 125 g ai/ha; 0 to 100 scale where 0 is no effect and 100 is complete control
PARAMETER_MEASURED: Kochia plant response rating

INSERT INTO results (molecule, quantitative_result) VALUES
  ('CCC(=O)Oc1c(C)nn(C)c(=O)c1-c1c(C)sc2ccc(Cl)cc12 [Compound 109]', 100),
  ('Cc1nn(C)c(=O)c(-c2cc(F)cc3ccccc23)c1OS(C)(=O)=O [Compound 115]', 30),
  ('CCC(=O)Oc1c(C)nn(C)c(=O)c1-c1c(C(F)(F)F)ccc2ccccc12 [Compound 147]', 50);

----------
Tested on: soybean (Glycine max)
Experiment: Test C greenhouse herbicide test, pre- and postemergence
Assay type: in vivo
Conditions: postemergence, 125 g ai/ha; scale 0 to 100, 0 no effect, 100 complete control
PARAMETER_MEASURED: Soybean plant response rating

INSERT INTO results (compound, quantitative_result) VALUES
  ('CCC(=O)Oc1c(C)nn(C)c(=O)c1-c1ccc(Br)c2ccccc12 [Compound 133]', 75),
  ('Cc1cc(C)c2ccccc2c1-c1c(OS(C)(=O)=O)c(C)nn(C)c1=O [Compound 154]', 20),
  ('COc1nn(C)c(=O)c(-c2c(C)ccc3ccccc23)c1OC(C)=O [Compound 138]', 10),
  ('COC(=O)Oc1cnn(C)c(=O)c1-c1c(C)ccc2ccccc12 [Compound 143]', 20),
  ('CC(=O)Oc1c(C)nn(C)c(=O)c1-c1c(C)cc(C)c2ccccc12 [Compound 153]', 10);

----------
Test system: johnsongrass (Sorghum halepense)
Test: Test C greenhouse herbicide test, pre- and postemergence
Assay type: in vivo
Settings: Postemergence, 31 g ai/ha; 0 to 100 scale (0 no effect, 100 complete control)
Reported Johnsongrass plant response rating by item:
PARAMETER_MEASURED: Johnsongrass plant response rating

INSERT INTO results (compound_string, quantitative_result) VALUES
  ('COc1nn(C)c(=O)c(-c2c(C)ccc3ccccc23)c1OC(=O)OC(C)C', 0),
  ('Cc1ccc(-c2c(O)c(Br)nn(C)c2=O)c2ccccc12', 5),
  ('Cc1nn(C)c(=O)c(-c2c(C)sc3ccccc23)c1O', 5),
  ('CCC(=O)Oc1c(C)nn(C)c(=O)c1-c1c(C)sc2ccc(C)cc12', 5),
  ('Cc1ccc2ccc(C)c(-c3c(O)c(C)nn(C)c3=O)c2c1', 5);
